- Test: Volume of distribution at steady state in dog at 1 mg/kg, iv
- Format: ADME, organism-based, Canis lupus familiaris
- Parameters: dose 1 mg/kg, route intravenous
- Experimental setup: in vivo, read-out: Vdss
Observed property: Vd

Input line: # get_value(readout='Vd', item= Cc1c(CN[C@H]2CC[C@@H](F)C2)nn(CCC#N)c1-c1cc(F)cc(F)c1 )
Output line: 3.5 L/kg

* * *

- Test: AUC (0 to infinity) in rat at 3 mg/kg, po
- Type: ADME, organism-based
- Design: time infinity, dose 3 mg/kg, route oral
- Experimental setup: plasma
Observed property: AUC(0-inf) (µM·h)
Field: numeric (µM·h). Do not append units.

Input line: Reported AUC(0-inf), molecule Cc1c(CN[C@H]2CC[C@@H](F)C2)nn(CCC#N)c1-c1cc(F)cc(F)c1 : ____
Output line: 0.3
